Values from patent US20220064272A1

Target: T1, TauC3 (C-terminally truncated tau fragment ending at aspartate 421 of htau40) (human, UniProt P10636 1-738)
T1 construct: Generated and purified by Genscript; also called Human TauC3; recombinant TauC3 protein
T1 sequence (P10636 other isoform, or with tags, fused parts or gaps): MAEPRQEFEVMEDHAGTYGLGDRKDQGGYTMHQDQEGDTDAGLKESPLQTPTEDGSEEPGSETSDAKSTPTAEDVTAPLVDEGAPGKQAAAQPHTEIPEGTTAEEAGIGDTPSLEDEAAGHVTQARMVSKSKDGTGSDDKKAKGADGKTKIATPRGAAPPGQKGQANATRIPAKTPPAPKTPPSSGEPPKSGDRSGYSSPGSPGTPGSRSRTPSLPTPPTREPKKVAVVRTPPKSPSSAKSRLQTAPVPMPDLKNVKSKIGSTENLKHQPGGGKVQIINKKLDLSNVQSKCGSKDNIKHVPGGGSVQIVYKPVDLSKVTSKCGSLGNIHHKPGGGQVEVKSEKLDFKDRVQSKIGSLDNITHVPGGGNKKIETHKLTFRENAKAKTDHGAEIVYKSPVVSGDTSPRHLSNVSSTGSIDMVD
Experiment: binding ELISA on coated TauC3, OD650
value.type: pEC50
As a rule, pEC50 stands for the negative log10 of the concentration, concentration in M.

Tau01 HNKB (antibody, V domains shown, human IgG4 kappa (HuG4K)) VH: LVQVVESGGGLVQPGGSLKLSCAASGFTFNTYAMNWVRQASGKGLEWVGRIRSKSNNYATYYAASVKGRFTISRDDSKSMAYLQMDSLKTEDTAVYYCVGGGDFWGQGTLVTVSS VL: DIQMTQSPSSLSASVGDRVTITCRASQEISVYLSWFQQKPGKAIKRLIYGAFTLQSGVPSRFSGSRSGSEYTLTISSLQPEDFATYYCLQYVRYPWTFGGGTKVEIK	9.23
Tau01 HNKJ (antibody, V domains shown, human IgG4 kappa (HuG4K)) VH: LVQVVESGGGLVQPGGSLKLSCAASGFTFNTYAMNWVRQASGKGLEWVGRIRSKSNNYATYYAASVKGRFTISRDDSKSMAYLQMDSLKTEDTAVYYCVGGGDFWGQGTLVTVSS VL: DIQMTQSPSSLSASVGDRVTITCRASQEISVYLGWYQQKPGKAPKRLIYGAFSLQSGVPSRFSGSRSGTEFTLTISSLQPEDFATYYCLQYVRYPWTFGGGTKVEIK	8.59
Tau01 HNKG (antibody, V domains shown, human IgG4 kappa (HuG4K)) VH: LVQVVESGGGLVQPGGSLKLSCAASGFTFNTYAMNWVRQASGKGLEWVGRIRSKSNNYATYYAASVKGRFTISRDDSKSMAYLQMDSLKTEDTAVYYCVGGGDFWGQGTLVTVSS VL: DIQMTQSPSSLSASVGDRVTITCRASQEISVYLGWYQQKPGKAPKRLIYGAFTLQSGVPSRFSGSRSGTEFTLTISSLQPEDFATYYCLQYVRYPWTFGGGTKVEIK	8.97
MoTau01 HuG4K chimeric antibody (antibody, V domains shown, Mouse variable regions with human IgG4 / kappa constant regions (pHuG4, pHuK); also called chimeric Tau01) VH: EVQVVESGGGLVQPKGSLKLSCAASGFTFNTYAMNWVRQAPGKGLEWVARIRSKSNNYATYYADSVKDRFTISRDDSQSMVYLQMNNLKTEDTAMYYCVGGGDFWGQGTALTVSS VL: DIQMTQSPSSLSASLGERVSLTCRASQEISVYLSWFQQKPDGTIKRLIYGAFTLDSGVPKRFSGSRSGSDYSLTISSLESEDFADYYCLQYVRYPWTFGGGTKLEIK	9.32
Tau01 HBKB (antibody, V domains shown, human IgG4 kappa (HuG4K)) VH: EVQVVESGGGLVQPGGSLKLSCAASGFTFNTYAMNWVRQASGKGLEWVARIRSKSNNYATYYADSVKGRFTISRDDSKSMVYLQMDSLKTEDTAVYYCVGGGDFWGQGTLVTVSS VL: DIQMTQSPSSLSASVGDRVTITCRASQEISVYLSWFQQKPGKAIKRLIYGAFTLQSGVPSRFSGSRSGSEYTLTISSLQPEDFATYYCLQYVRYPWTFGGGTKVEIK	9.40

// below: pEC50 requested for another binder
// pEC50 lookup, key: Tau01 HNKI (antibody, V domains shown, human IgG4 kappa (HuG4K)) VH: LVQVVESGGGLVQPGGSLKLSCAASGFTFNTYAMNWVRQASGKGLEWVGRIRSKSNNYATYYAASVKGRFTISRDDSKSMAYLQMDSLKTEDTAVYYCVGGGDFWGQGTLVTVSS VL: DIQMTQSPSSLSASVGDRVTITCRASQEISVYLGWYQQKPGKAPKRLIYGAFKLQSGVPSRFSGSRSGTEYTLTISSLQPEDFATYYCLQYVRYPWTFGGGTKVEIK
9.12
